Assay: Drug interaction study with rifampin (CYP3A4 inducer): plasma PK of i.v. eravacycline and metabolites
Format: in vivo, human
Conditions: human, plasma, intravenous, 1 mg/kg; day 1, eravacycline alone, mean ± SD, n = 12; read-out: Vss
Endpoint label: Vd (L/kg)
Please state the figure in L/kg; there is no need to write the unit.

Query block: Return reported Vd. Input molecule: CN(C)[C@@H]1C(O)=C(C(N)=O)C(=O)[C@@]2(O)C(O)=C3C(=O)c4c(O)c(NC(=O)CN5CCCC5)cc(F)c4C[C@H]3C[C@@H]12
Result block: 2.85

###

Experiment: Drug interaction study with itraconazole (CYP3A4 inhibitor): plasma PK of i.v. eravacycline and metabolites
Assay type: in vivo, human
Conditions: human, plasma, iv; day 10, eravacycline 1 mg/kg i.v. with itraconazole, mean ± SD, n = 10
Endpoint label: half-life
Answer format: number, then unit.

Query block: Return reported half-life. Input molecule: CN(C)[C@@H]1C(O)=C(C(N)=O)C(=O)[C@@]2(O)C(O)=C3C(=O)c4c(O)c(NC(=O)CN5CCCC5)cc(F)c4C[C@H]3C[C@@H]12
Result block: 19 h

###

Assay: Drug interaction study with itraconazole (CYP3A4 inhibitor): plasma PK of i.v. eravacycline and metabolites
Assay type: in vivo, human
Details: human, plasma, iv; day 1, eravacycline 1 mg/kg i.v. alone, mean ± SD, n = 10
Endpoint label: half-life (h)
Please state the figure in h; there is no need to write the unit.

Query block: Return reported half-life. Input molecule: CN(C)[C@@H]1C(O)=C(C(N)=O)C(=O)[C@@]2(O)C(O)=C3C(=O)c4c(O)c(NC(=O)CN5CCCC5)cc(F)c4C[C@H]3C[C@@H]12
Result block: 14

###

Test: Drug interaction study with itraconazole (CYP3A4 inhibitor): plasma PK of i.v. eravacycline and metabolites
Assay type: in vivo, human
Details: human, plasma, iv; day 10, eravacycline 1 mg/kg i.v. with itraconazole, mean ± SD, n = 10
Endpoint label: AUC(0-t) (ng·h/mL)
Please state the figure in ng·h/mL; there is no need to write the unit.

Query block: Return reported AUC(0-t). Input compound: CN(C)[C@@H]1C(O)=C(C(N)=O)C(=O)[C@@]2(O)C(O)=C3C(=O)c4c(O)c(NC(=O)CN5CCCC5)cc(F)c4C[C@H]3C[C@@H]12
Result block: 5700

###

Assay: Drug interaction study with rifampin (CYP3A4 inducer): plasma PK of i.v. eravacycline and metabolites
Type: in vivo, human
Conditions: human, plasma, intravenous, 1 mg/kg; day 1, eravacycline alone, mean ± SD, n = 12
Endpoint label: clearance (mL/min/kg)
Please state the figure in mL/min/kg; there is no need to write the unit.

Query block: Return reported clearance. Input compound: CN(C)[C@@H]1C(O)=C(C(N)=O)C(=O)[C@@]2(O)C(O)=C3C(=O)c4c(O)c(NC(=O)CN5CCCC5)cc(F)c4C[C@H]3C[C@@H]12
Result block: 3.2

###

Assay: Drug interaction study with itraconazole (CYP3A4 inhibitor): plasma PK of i.v. eravacycline and metabolites
Type: in vivo, human
Settings: human, plasma, iv; day 1, eravacycline 1 mg/kg i.v. alone, mean ± SD, n = 10
Endpoint label: clearance (mL/min/kg)
Please state the figure in mL/min/kg; there is no need to write the unit.

Query block: Return reported clearance. Input compound: CN(C)[C@@H]1C(O)=C(C(N)=O)C(=O)[C@@]2(O)C(O)=C3C(=O)c4c(O)c(NC(=O)CN5CCCC5)cc(F)c4C[C@H]3C[C@@H]12
Result block: 3.79
